study_system: Cytochrome P450 3A4 (Homo sapiens) (UniProt P08684)
Sequence (P08684 whole entry, looked up): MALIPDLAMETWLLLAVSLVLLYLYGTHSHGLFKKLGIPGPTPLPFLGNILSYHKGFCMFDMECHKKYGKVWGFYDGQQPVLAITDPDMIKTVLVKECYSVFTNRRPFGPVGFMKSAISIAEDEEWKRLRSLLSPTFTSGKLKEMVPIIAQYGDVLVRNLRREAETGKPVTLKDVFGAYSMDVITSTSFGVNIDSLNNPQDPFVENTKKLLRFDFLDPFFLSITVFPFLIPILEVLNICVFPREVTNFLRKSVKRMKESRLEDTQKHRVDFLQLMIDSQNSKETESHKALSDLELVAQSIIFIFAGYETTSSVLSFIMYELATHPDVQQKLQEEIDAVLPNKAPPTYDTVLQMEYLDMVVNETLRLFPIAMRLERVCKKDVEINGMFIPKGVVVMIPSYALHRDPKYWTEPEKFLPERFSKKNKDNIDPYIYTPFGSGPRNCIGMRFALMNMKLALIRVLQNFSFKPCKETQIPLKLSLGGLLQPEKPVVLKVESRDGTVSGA
assay_comment: qHTS Assay for Activators of Cytochrome P450 3A4 (AID 885); note: nearly all actives have a fitted effect of over 65% in size
test_context: recombinant CYP3A4, Luciferin-PPXE luminescence, 60 min; series mostly up to 57.1 µM
Active and inactive are the calls of the source. Calls come from the whole dose curve; as a rule, active = well fitted activation curve with a large enough effect; inconclusive = small, poorly fitted or top-dose-only effect; inactive = no such curve, though single readings can be large or run the other way.
endpoint_name: activity change, positive = activation

[
  {
    "compound_smiles": "CCN(Cc1ccncc1)C(=O)[C@@H](CO)c1ccccc1",
    "study_system": "Cytochrome P450 3A4 (Homo sapiens) (UniProt P08684)",
    "endpoint_name": "activity change, positive = activation",
    "endpoint_value": "inactive"
  },
  {
    "compound_smiles": "COc1ccc(-c2nc(C(=O)N3CCN(C)CC3)sc2-c2ccc(OC)cc2)cc1",
    "study_system": "Cytochrome P450 3A4 (Homo sapiens) (UniProt P08684)",
    "endpoint_name": "activity change, positive = activation",
    "endpoint_value": "inactive"
  },
  {
    "compound_smiles": "NC[C@](O)(CS(=O)(=O)O)c1ccc(Cl)cc1",
    "study_system": "Cytochrome P450 3A4 (Homo sapiens) (UniProt P08684)",
    "endpoint_name": "activity change, positive = activation",
    "endpoint_value": "inactive"
  },
  {
    "compound_smiles": "CCCCCCCCC(=O)NCc1cc(OC)c(O)cc1I",
    "study_system": "Cytochrome P450 3A4 (Homo sapiens) (UniProt P08684)",
    "endpoint_name": "activity change, positive = activation",
    "endpoint_value": "inactive"
  },
  {
    "compound_smiles": "CCCC[C@@H]1CN2[C@H](c3ccc(Br)cc3)[C@H](C)CC[C@H]2C(=O)O1",
    "study_system": "Cytochrome P450 3A4 (Homo sapiens) (UniProt P08684)",
    "endpoint_name": "activity change, positive = activation",
    "endpoint_value": "-42.5% [at 11.4 µM] (inactive)"
  },
  {
    "compound_smiles": "C[C@@H]1CC[C@H]2C(=O)NC[C@@H](O)CN2[C@@H]1c1ccc(Br)cc1",
    "study_system": "Cytochrome P450 3A4 (Homo sapiens) (UniProt P08684)",
    "endpoint_name": "activity change, positive = activation",
    "endpoint_value": "-42.5% [at 11.4 µM] (inactive)"
  },
  {
    "compound_smiles": "NCCCCNS(=O)(=O)c1ccc2c(Cl)cccc2c1",
    "study_system": "Cytochrome P450 3A4 (Homo sapiens) (UniProt P08684)",
    "endpoint_name": "activity change, positive = activation",
    "endpoint_value": "inactive"
  },
  {
    "compound_smiles": "COc1cc(CNC(=O)CCCC/C=C\\C(C)C)ccc1O",
    "study_system": "Cytochrome P450 3A4 (Homo sapiens) (UniProt P08684)",
    "endpoint_name": "activity change, positive = activation",
    "endpoint_value": "inactive"
  },
  {
    "compound_smiles": "COCCNC(=O)COc1ccc(OCCNC[C@@H](O)COc2ccccc2)cc1",
    "study_system": "Cytochrome P450 3A4 (Homo sapiens) (UniProt P08684)",
    "endpoint_name": "activity change, positive = activation",
    "endpoint_value": "inactive"
  },
  {
    "compound_smiles": "c1cc2c(cc1C1CCCCC1)c1c3n2CCN[C@H]3CCC1",
    "study_system": "Cytochrome P450 3A4 (Homo sapiens) (UniProt P08684)",
    "endpoint_name": "activity change, positive = activation",
    "endpoint_value": "inactive"
  }
]
